Source of measurements: patent US20240000957A1

As shown below, each of these binders has a reported pKi value.
# Test system: T1, Human EphA2 (Ecto), C-terminal polyHis (Human, UniProt P29317 24-537)
# T1 construct: extracellular domain; R&D systems 3035-A2 or in-house
# T1 sequence (P29317 24-537): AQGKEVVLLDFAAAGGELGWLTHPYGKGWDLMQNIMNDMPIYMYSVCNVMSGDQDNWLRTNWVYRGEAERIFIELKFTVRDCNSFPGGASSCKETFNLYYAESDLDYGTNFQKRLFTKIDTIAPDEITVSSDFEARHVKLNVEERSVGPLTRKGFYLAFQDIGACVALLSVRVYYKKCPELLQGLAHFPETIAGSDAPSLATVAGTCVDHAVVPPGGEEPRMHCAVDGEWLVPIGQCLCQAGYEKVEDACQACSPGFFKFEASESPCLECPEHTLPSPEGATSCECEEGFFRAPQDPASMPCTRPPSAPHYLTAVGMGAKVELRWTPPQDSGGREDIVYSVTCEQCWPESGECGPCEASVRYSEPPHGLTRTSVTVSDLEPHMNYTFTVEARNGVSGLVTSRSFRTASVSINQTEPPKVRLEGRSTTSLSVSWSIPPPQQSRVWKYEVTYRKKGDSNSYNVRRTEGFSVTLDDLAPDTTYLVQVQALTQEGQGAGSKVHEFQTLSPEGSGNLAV
# Protocol description: FP competition vs Reference Compound B
*1 amine or outer side, *2 acyl side, *3 side chain or, on linkers, in order; H or OH if unused. Bridges are numbered along the chain shown (N, C = ends). Where no end group is shown, it is not given here. TATA = O=C(CC[*:1])N1CN(C(=O)CC[*:2])CN(C(=O)CC[*:3])C1
pKi (log units): -log10 of the concentration in mol/L.

Would you please look over these solved cases?
ACSPTPACAVQNLCA (linker 2-8-14 via TATA; not fully specified (C-terminus)) [Compound 31] = 6.75
ACYVGKECAYMNVCA (linker 2-8-14 via TATA; not fully specified (C-terminus)) [Compound 29] = 6.97

From here, focus on the item given below.
Quick one: pKi for ACQPSNHCAFMNYCA (linker 2-8-14 via TATA) [Compound 30] ? 6.73
